- ASSAY REMARKS: Water solubility (preformulation, preliminary studies)
- Format: physicochemical
- CONDITION DETAILS: water, unformulated
MEASUREMENT TYPE: solubility

**Q:** Requested field: solubility. Item: CCN(CC)C(=O)CC(C)(C(=O)/C=C/c1ccc(OC)c(OC)c1)C(=O)/C=C/c1ccc(OC)c(OC)c1
**A:** < 100 µg/mL

* * *

- ASSAY REMARKS: Brain penetration study in AD transgenic mice after oral dosing
- Format: in vivo, mouse
- CONDITION DETAILS: brain relative to plasma; oral dose of 150 mg/kg; AD transgenic mouse; read-out: brain level as % of the plasma pK levels
MEASUREMENT TYPE: Kp

**Q:** Requested field: Kp. Item: CCN(CC)C(=O)CC(C)(C(=O)/C=C/c1ccc(OC)c(OC)c1)C(=O)/C=C/c1ccc(OC)c(OC)c1
**A:** 0.1
